System: Coagulation factor X (Homo sapiens) | Read-out: Ki | Origin: multiple publications
Bucketed by reported Ki, buckets being label 0: < 7 nM; label 1: ≥ 7 nM and < 50 nM; label 2: ≥ 50 nM

// known answers, use as guide
Given CNC(=O)N(C)c1ccc(C(=O)Nc2ccc(Cl)cc2C(=O)Nc2ccc(Cl)cn2)cc1 , name the class its Ki places it in.
label 0

Lab note: sort NCc1ccc(Cl)cc1CNC(=O)[C@@H]1CCCCN1C(=O)[C@@H](CC(=O)N1CCOCC1)NS(=O)(=O)Cc1ccccc1 into the matching Ki band.
label 1

Which class does NCc1ccc(Cl)cc1CNC(=O)[C@@H]1CCCN1C(=O)[C@@H](CC(=O)N1CCSCC1)NS(=O)(=O)Cc1ccccc1 fall in?
label 0

Which category does the recorded Ki put NC(N)=Nc1ccc(C(=O)N(Cc2cccc(C(=O)O)c2)C2CCN(S(=O)(=O)/C=C/c3ccc(Cl)cc3)C2)cc1 (centres unmarked) in?
label 2

# classify by Ki band: CSc1sc(C(N)=NC#N)cc1-c1nc(-c2ccccc2)cs1
label 2

Which class is correct for the following compound? CC(C)N1CCC(N(Cc2cc(-c3ccc(Cl)s3)on2)S(=O)(=O)CCNC(=O)c2ccc(Cl)s2)CC1
label 0

Dear colleague, I would appreciate it if you could identify the bin for NC(N)=Nc1ccc(C(=O)N(Cc2cccc(OCC(=O)O)c2)C2CCN(S(=O)(=O)/C=C/c3ccc(Cl)cc3)C2)cc1 (centres unmarked) and reply at your convenience.
label 2

Which Ki category applies to CC(C)N1CCC(NC(=O)c2nc(-n3cccc3)n(Cc3cc(-c4ccc(Cl)s4)on3)n2)CC1 here?
label 2

Further cases:
Textbook exercise: identify the category of the compound given here, CC(C)N1CCC(NC(=O)c2nn(Cc3cc(-c4ccc(Cl)s4)on3)c3ccc(C(=O)OCCO)cc23)CC1 , according to its measured value.
label 1

GET /class?item= COC(=O)c1cn(Cc2cc(-c3ccc(Cl)s3)on2)c(C(=O)NC2CCN(C(C)C)CC2)n1
label 1

Which class is correct for the following compound? O=C(Cn1c(C(=O)Nc2ccc(-n3ccc(=O)[nH]c3=O)cc2)nc2ccccc21)Nc1ccc(Cl)cn1
label 1
